Target under test: AII receptor (Oryctolagus cuniculus, UniProt P34976)
Construct: A portion of rabbit aorta was excised to prepare a spiral strip specimen; from tissue; host or cells: excised rabbit aorta, spiral strip
Sequence (P34976 whole entry): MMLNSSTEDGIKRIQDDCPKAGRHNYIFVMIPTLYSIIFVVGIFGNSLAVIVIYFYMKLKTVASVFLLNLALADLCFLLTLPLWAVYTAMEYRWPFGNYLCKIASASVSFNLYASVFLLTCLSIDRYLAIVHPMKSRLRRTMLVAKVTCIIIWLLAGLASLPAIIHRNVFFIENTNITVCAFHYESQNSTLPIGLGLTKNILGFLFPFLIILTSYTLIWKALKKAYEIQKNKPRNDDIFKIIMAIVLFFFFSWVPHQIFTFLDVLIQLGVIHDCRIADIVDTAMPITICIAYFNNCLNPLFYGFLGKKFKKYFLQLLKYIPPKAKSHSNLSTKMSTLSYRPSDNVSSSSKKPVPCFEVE
Assay overview: in vitro: antagonistic effect on AII contraction of an excised rabbit aorta (spiral strip)
Type: cell-based
Test context: negative log of concentration required to shift AII dose-response curve to two times higher concentration, read-out: in vitro (pA2 value) (converted)
Counter-ions that a name gives are not always drawn.
Reported metric: Kb (nM)

- Compound: "CCc1nc2c(CC)cn(Cc3ccc(-c4ccccc4-c4nnn[nH]4)cc3)n2n1"
  Reported value: 2.24
- Compound: "CCc1nc2c(CC)c(CO)n(Cc3ccc(-c4ccccc4-c4nn[nH]n4)cc3)n2n1"
  Reported value: 0.955
- Compound: "CCc1nc2c(C(C)C)cn(Cc3ccc(-c4ccccc4-c4nnn[nH]4)cc3)n2n1"
  Reported value: 3.02
- Compound: "CCc1nc2c(CC)c(COC)n(Cc3ccc(-c4ccccc4-c4nnn[nH]4)cc3)n2n1"
  Reported value: 1.41
- Compound: "CCc1nc2c(CC)c(C(=O)OC)n(Cc3ccc(-c4ccccc4-c4nn[nH]n4)cc3)n2n1 [Example 102, sodium salt]"
  Reported value: 0.724
